Below are pIC50 measurements against Human Factor XIIa (Homo sapiens, UniProt P00748) drawn from the literature.
pIC50: −log10 of the molar value.
reported_metric: pIC50

| compound | experimental_target | observed |
| --- | --- | --- |
| O=C(NCc1ccnnc1)c1nn(-c2cccc(Cl)c2)c2c1CCN(c1ccc3c(c1)CN(CCO)CC3)C2=O | Human Factor XIIa (Homo sapiens, UniProt P00748) | 6.52 to 7.00 |
| O=C(NCC1CC1)c1nn(-c2cccc(Cl)c2)c2c1CCN(c1cccc(N3CCOCC3=O)c1)C2=O | Human Factor XIIa (Homo sapiens, UniProt P00748) | 5.00 to 5.52 |
| Cn1ccc(OCC23CN(C(=O)OCc4ccccn4)C(CNc4cccc5c(N)nccc45)(C2)C3)cc1=O | Human Factor XIIa (Homo sapiens, UniProt P00748) | 7.00 to 8.00 |
| O=C(NC1CCOCC1)c1nn(-c2cccc(Cl)c2)c2c1CCN(c1ccc3c(c1)CN(CCO)CC3)C2=O | Human Factor XIIa (Homo sapiens, UniProt P00748) | 6.52 to 7.00 |
| CN1CCC(CCc2ccc(CNc3ccc4c(N)nccc4c3)cc2)CC1 | Human Factor XIIa (Homo sapiens, UniProt P00748) | 6.52 to 7.00 |
| O=C(NCC1CC1)c1nn(-c2cccc(Cl)c2)c2c1CCN(c1ccc3c(c1)CN(CCO)CC31CC1)C2=O | Human Factor XIIa (Homo sapiens, UniProt P00748) | 6.52 to 7.00 |
| Cc1nc2c(C(=O)NCC3CC3)nn(-c3cccc(Cl)c3)c2c(=O)n1-c1ccc2c(c1)C(=O)N(C)CC2 | Human Factor XIIa (Homo sapiens, UniProt P00748) | 6.52 to 7.00 |
| CN1CCC(CNc2ccc(CNc3cc(F)c4cnccc4c3)cn2)CC1 | Human Factor XIIa (Homo sapiens, UniProt P00748) | 4.00 to 4.40 |
| Nc1ncc(Cl)c2cc(NCc3ccc(N4CCc5nccn5CC4)nc3)ccc12 | Human Factor XIIa (Homo sapiens, UniProt P00748) | 5.52 to 6.00 |
| COc1cc(NCc2ccc(NCC3CCN(C)CC3)nc2)cc2ccncc12 | Human Factor XIIa (Homo sapiens, UniProt P00748) | 4.40 to 5.00 |
| CCNC(=O)c1nn(-c2cccc(Cl)c2)c2c1CCN(c1cccc(N3CCN(C)CC3)c1)C2=O | Human Factor XIIa (Homo sapiens, UniProt P00748) | 5.52 to 6.00 |
| Nc1nccc2c(NCC34CC(COc5ccc6c(c5)NC(=O)C6)(C3)C4)cccc12 | Human Factor XIIa (Homo sapiens, UniProt P00748) | 5.52 to 6.00 |
| CCNC(=O)c1nn(-c2cccc(Cl)c2)c2c1CCN(c1cccc(N3CCN(C)CC3=O)c1)C2=O | Human Factor XIIa (Homo sapiens, UniProt P00748) | 5.00 to 5.52 |
| Nc1ncc(Cl)c2cc(NCc3cnc(OCC4CCn5ccnc5C4)nc3)ccc12 (stereo not shown) | Human Factor XIIa (Homo sapiens, UniProt P00748) | 6.00 to 6.52 |
| Nc1ncc(Cl)c2cc(NCc3ccnc(OCC4CCCn5ccnc54)c3)ccc12 (single isomer, unassigned) | Human Factor XIIa (Homo sapiens, UniProt P00748) | 6.52 to 7.00 |
| Nc1nccc2c(NCC34CC(COc5cccn6ccnc56)(C3)C4)cccc12 | Human Factor XIIa (Homo sapiens, UniProt P00748) | 6.00 to 6.52 |
